experimental.target: Prostaglandin E2 receptor EP4 subtype (Homo sapiens)
Sequence (P35408 whole entry): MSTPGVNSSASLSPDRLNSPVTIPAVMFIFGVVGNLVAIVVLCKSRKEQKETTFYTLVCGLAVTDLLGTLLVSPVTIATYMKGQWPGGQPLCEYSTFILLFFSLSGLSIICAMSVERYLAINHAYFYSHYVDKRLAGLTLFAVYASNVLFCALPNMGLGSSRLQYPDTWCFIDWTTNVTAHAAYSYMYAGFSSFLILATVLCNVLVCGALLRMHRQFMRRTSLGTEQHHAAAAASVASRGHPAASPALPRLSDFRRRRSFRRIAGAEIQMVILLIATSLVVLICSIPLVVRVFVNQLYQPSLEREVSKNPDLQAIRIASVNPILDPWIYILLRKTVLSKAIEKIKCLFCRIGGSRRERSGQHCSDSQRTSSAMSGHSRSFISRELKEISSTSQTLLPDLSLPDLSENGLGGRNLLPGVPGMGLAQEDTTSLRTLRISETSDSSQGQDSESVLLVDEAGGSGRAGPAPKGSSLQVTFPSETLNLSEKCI
assay.summary: Partial agonist activity at human EP4 receptor expressed in HEK293-AEQ17 cells assessed as cAMP accumulation by aequorin luminescence assay
Assay type: functional, cell-based
Parameter EC50: see the listing below.
observation.type: EC50 (nM)

- CCOc1c2c(c(OCC)c3cc(C)ccc13)C(=O)N(c1ccc(CC(=O)O)cc1)C2=O: 20
- CC(C)Oc1c2c(c(OC(C)C)c3ccccc13)C(=O)N(c1ccc(CC(=O)O)cc1)C2: 39.8
- CCOc1c2c(c(OCC)c3ccccc13)C(=O)N(c1ccc(CC(=O)O)cc1Br)C2: 5.01
- CCOc1c2c(c(OCC)c3ccccc13)CN(c1ccc(CC(=O)O)cc1)C2: 251
- CCCOc1c2c(c(OCCC)c3ccccc13)C(=O)N(c1ccc(CC(=O)O)cc1)C2: 126
- CCOc1c2c(c(OCC)c3ccccc13)C(=O)N(c1ccc(CC(=O)O)cc1C(F)(F)F)C2: 50.1
- CCOc1c2c(c(OCC)c3ccccc13)C(=O)N(c1ccc(CC(=O)O)cc1Cl)C2: 5.01
- COc1c2c(c(OC)c3ccccc13)C(=O)N(c1ccc(CC(=O)O)cc1)C2=O: 200
- CCCCOc1c2c(c(OCCCC)c3ccccc13)C(=O)N(c1ccc(CC(=O)O)cc1)C2: 200
- CCOc1c2c(c(OCC)c3ccccc13)C(=O)N(c1ccc(CC(=O)O)cc1)C2=O: 25.1
- CCOc1c2c(c(OCC)c3ccccc13)C(=O)N(c1ccc(CC(=O)O)cc1C)C2: 7.94
- CCOc1c2c(c(OCC)c3ccccc13)C(=O)N(c1ccc(CC(=O)O)cc1F)C2: 3.98
- CCOc1c2c(c(OCC)c3cc(F)ccc13)C(=O)N(c1ccc(CC(=O)O)cc1)C2=O: 79.4
- CCOc1c2c(c(OCC)c3ccccc13)C(=O)N(c1ccc(CC(=O)O)cc1OC)C2: 10
- CCOc1c2c(c(OCC)c3ccccc13)C(=O)N(c1ccc(CC(=O)O)cc1)C2: 20

###

experimental.target: Cytochrome P450 2D6 (Homo sapiens, UniProt P10635)
Sequence (P10635 whole entry): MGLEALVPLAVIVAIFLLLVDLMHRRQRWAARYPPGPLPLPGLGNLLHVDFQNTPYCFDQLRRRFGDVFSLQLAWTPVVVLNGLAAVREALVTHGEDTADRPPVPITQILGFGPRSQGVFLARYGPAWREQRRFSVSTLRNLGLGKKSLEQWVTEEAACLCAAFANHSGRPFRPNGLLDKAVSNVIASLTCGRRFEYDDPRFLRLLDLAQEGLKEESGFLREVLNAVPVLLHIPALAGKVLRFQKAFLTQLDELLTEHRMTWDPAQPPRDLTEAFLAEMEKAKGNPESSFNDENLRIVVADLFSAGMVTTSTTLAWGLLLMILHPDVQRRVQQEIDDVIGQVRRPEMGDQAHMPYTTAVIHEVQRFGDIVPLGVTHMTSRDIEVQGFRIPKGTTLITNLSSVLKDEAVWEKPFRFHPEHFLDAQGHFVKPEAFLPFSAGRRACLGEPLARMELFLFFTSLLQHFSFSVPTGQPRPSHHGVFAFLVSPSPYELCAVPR
assay.summary: Inhibition of human recombinant CYP2D6
pIC50: −log10 of the molar value.
observation.type: pIC50

- CCOc1c2c(c(OCC)c3ccccc13)C(=O)N(c1ccc(CC(=O)O)cc1)C2=O: 4.38

###

assay.summary: Blood clearance in rat at 1 mg/kg, po
Type: ADME, organism-based
observation.type: CL/F (mL/min/kg)

* CCOc1c2c(c(OCC)c3ccccc13)C(=O)N(c1ccc(CC(=O)O)cc1)C2=O | 0.2
* CCOc1c2c(c(OCC)c3ccccc13)C(=O)N(c1ccc(CC(=O)O)c(F)c1)C2 | 1
* CCOc1c2c(c(OCC)c3ccccc13)C(=O)N(c1ccc(CC(=O)O)cc1)C2 | 0.6

###

assay.summary: Protein binding in human plasma
Type: ADME, cell-free
test.conditions: read-out: PPB
observation.type: fraction unbound

* CCOc1c2c(c(OCC)c3ccccc13)C(=O)N(c1ccc(CC(=O)O)c(F)c1)C2 | 0.001

###

Test system: Canis familiaris
assay.summary: Blood clearance in orally dosed dog
Assay type: ADME, organism-based, Canis lupus familiaris
test.conditions: in vivo, po
observation.type: clearance

- CCOc1c2c(c(OCC)c3ccccc13)C(=O)N(c1ccc(CC(=O)O)c(F)c1)C2: 4 mL/min/kg

Origin of the recorded values: ChEMBL document CHEMBL4219215
